Test system: HCT116 MTAP null cells
Test: HCT116 proliferation assay, MTAP null cells (CellTiter-Glo, 6 days)
Type: cell-based
Conditions: HCT116-MTAP null, 144 h, read-out: Protif_ HCT116-MTAP null IC50
PROPERTY_NAME: IC50 (nM)

COMPOUND	IC50 / nM
Cc1cnc(CN(Cc2ccc(C(F)(F)F)cn2)C(=O)c2ccc3nc(N)c(C)cc3c2)cn1	434
Cc1cc2cc(C(=O)N(Cc3ccc(S(C)(=O)=O)cn3)[C@H](C)c3ncccc3F)ccc2nc1N	198
COc1ccc(CN(C(=O)c2cnc3nc(N)c(Br)cc3c2)[C@H](C)c2ncccn2)nn1 (single isomer, unassigned)	594

[1] Cc1cc2cc(C(=O)N(Cc3cc4c(cn3)OCCC4)C(C)c3ncccn3)ccc2nc1N (stereo not drawn)
[2] Cc1cc2cc(C(=O)N(Cc3ccc(Cl)cn3)[C@H](C)c3ncccc3F)ccc2nc1N
Input: Field: lower IC50 | Options: 1 / 2 Identify your selection by its label.
Output: 2

[A] Cc1cc2cc(C(=O)N(Cc3ccc(C(F)(F)F)cn3)CC3CC3)ccc2nc1N
[B] Cc1cc2cc(C(=O)N(Cc3ccc(C(N)=O)cc3)Cc3ccc(C(F)(F)F)cn3)ccc2nc1N
[C] Cc1cc2cc(C(=O)N(Cc3ccc(OC4CC4)cn3)[C@H](C)c3ncccn3)ccc2nc1N
[D] COc1ccc(CN(C(=O)c2cc3cc(C)c(N)nc3cc2F)[C@@H](C)c2ncccn2)nn1 (single isomer, unassigned)
Input: Provide the items ranked by increasing IC50. Form field (ranking): labels in requested order.
Output: C, B, D, A
(C: 62 nM, B: 159 nM, D: 369 nM, A: 679 nM)

[P] CC[C@H](c1ncccn1)N(Cc1cnc(C(F)(F)F)cn1)C(=O)c1ccc2nc(N)c(C)cc2c1 (single isomer, unassigned)
[Q] Cc1cc2cc(C(=O)N(Cc3ccncc3)Cc3ccc(C(F)(F)F)cn3)ccc2nc1N
Input: Which has the higher IC50, P or Q ? Identify your selection by its label.
Output: Q

---

Test system: HCT116 WT cells
Assay: HCT116 proliferation assay, WT cells (CellTiter-Glo, 6 days)
Assay type: cell-based
Conditions: Homo sapiens, HCT-116, 144 h, read-out: Prolif_HCT116-WT IC50
pIC50: −log10 of the molar value.
PROPERTY_NAME: pIC50

MOLECULE	PROPERTY_NAME	NUMERIC_RESULT
C[C@H](c1ncccn1)N(Cc1ccc(OC(F)F)nn1)C(=O)c1ccc2nc(N)c(Br)cc2c1 [Example 746]	pIC50	5.14

[1] Cc1cc2cc(C(=O)N(Cc3ccc(C(F)(F)F)cn3)[C@@H]3COC[C@H]3O)ccc2nc1N [Example 505]
[2] CC(=O)N1CCC(c2ccc(CN(C(=O)c3ccc4nc(N)c(C)cc4c3)[C@H](C)c3ncccn3)nc2)CC1 [Example 552]
Input: Field: lower pIC50 | Options: 1 / 2 Identify your selection by its label.
Output: 1
(1: 4.99, 2: 5.59)

---

Molecular target: PRMT5/MEP50 (Homo sapiens)
Sequence (O14744 whole entry): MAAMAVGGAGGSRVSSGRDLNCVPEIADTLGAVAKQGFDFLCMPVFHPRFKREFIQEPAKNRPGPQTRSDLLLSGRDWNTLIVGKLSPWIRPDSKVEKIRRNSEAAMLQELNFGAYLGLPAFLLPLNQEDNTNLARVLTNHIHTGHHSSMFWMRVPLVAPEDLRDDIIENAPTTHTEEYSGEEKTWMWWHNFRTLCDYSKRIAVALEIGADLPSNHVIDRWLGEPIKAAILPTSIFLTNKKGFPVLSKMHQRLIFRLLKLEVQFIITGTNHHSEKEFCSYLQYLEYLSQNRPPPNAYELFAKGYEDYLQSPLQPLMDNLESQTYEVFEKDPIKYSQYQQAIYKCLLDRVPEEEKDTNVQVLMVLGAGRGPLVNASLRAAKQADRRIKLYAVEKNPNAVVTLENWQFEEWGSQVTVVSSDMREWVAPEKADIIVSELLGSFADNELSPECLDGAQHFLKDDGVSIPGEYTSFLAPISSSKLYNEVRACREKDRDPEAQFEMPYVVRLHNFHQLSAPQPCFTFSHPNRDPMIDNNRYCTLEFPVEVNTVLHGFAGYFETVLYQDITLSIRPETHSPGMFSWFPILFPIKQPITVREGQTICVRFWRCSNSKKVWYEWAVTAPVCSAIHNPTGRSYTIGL
Sequence (Q9BQA1 whole entry partner): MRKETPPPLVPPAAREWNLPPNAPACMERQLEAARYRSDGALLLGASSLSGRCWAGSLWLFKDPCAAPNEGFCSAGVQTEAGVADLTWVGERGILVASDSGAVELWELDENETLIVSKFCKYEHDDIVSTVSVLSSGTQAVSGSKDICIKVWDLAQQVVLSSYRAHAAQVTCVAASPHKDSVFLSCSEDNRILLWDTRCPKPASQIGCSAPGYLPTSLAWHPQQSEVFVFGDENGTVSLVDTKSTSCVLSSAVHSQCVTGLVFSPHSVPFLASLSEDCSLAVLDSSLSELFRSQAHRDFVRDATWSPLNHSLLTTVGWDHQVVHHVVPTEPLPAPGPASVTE
Experiment: MTase-Glo methyl transferase assay, Method A (Histone H4 peptide, 1 µM MTA, 24 h pre-incubation)
Format: biochemical
Parameters: made in house
Conditions: read-out: PRMT5 MTase Glo Ki (nM, Meth. A)
PROPERTY_NAME: Ki (nM)

MOLECULE	NUMERIC_RESULT
Cc1cc2cc(C(=O)N(Cc3ccc(C(F)(F)F)cn3)C[C@@H](C)C(F)(F)F)ccc2nc1N (single isomer, unassigned) [Example 457]	0.78

[I] Cc1cc2cc(C(=O)N(Cc3ccc4ccccc4n3)[C@H](C)c3ncccn3)ccc2nc1N (single isomer, unassigned) [Example 446]
[II] Cc1cc2cc(C(=O)N(Cc3ccc(C(F)(F)F)cn3)[C@H](C)c3ccc(Cl)cn3)ccc2nc1N [Example 428]
[III] Cc1cc2cc(C(=O)N(Cc3ccc(C(F)(F)F)cn3)Cc3cccc4[nH]ncc34)ccc2nc1N [Example 371]
Input: Provide the items ranked by increasing Ki. Form field (ranking): labels in requested order.
Output: III, I, II
(III: 0.01 nM, I: 0.04 nM, II: 0.08 nM)
